- study-target: T1, 4H429-AA
- T1 chain: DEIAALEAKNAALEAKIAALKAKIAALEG
- measurement-protocol: two-hybrid library CCmax;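 note: natural log of median RNA to DNA barcode read ratio; higher means stronger binding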
- applied-conditions: mean of both orientations
measurement-name: interaction score

[[record]]
binder = "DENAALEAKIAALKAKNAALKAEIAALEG [4H1401-AA]"
measurement_name = "interaction score"
obs_value = 0.239

[[record]]
binder = "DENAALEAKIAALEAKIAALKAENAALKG [4H1324-AA]"
measurement_name = "interaction score"
obs_value = -1.18

[[record]]
binder = "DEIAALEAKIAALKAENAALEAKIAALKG [4H342-AA]"
measurement_name = "interaction score"
obs_value = -0.49

[[record]]
binder = "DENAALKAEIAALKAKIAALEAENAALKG [4H1636-AA]"
measurement_name = "interaction score"
obs_value = -1.27

